attribute_measured: melting point (°C)
Give bare numbers, in °C.

>  <compound>
CCCCCCCCCCCCOc1nn(-c2ccc(Cl)c(Cl)c2)c(=O)o1

>  <unit_spec>
°C

>  <melting point>
74

$$$$
>  <compound>
CCCCCCCCCCCCOc1nn(-c2cccc(F)c2)c(=O)o1

>  <unit_spec>
°C

>  <melting point>
44

$$$$
>  <compound>
CCCCCCCCCCCCOc1nn(-c2cccc(OC)c2)c(=O)o1

>  <unit_spec>
°C

>  <melting point>
51

$$$$
>  <compound>
CCCCCCCCCCCCCCCCOc1nn(-c2cccc(OC(F)(F)F)c2)c(=O)o1

>  <unit_spec>
°C

>  <melting point>
53

$$$$
>  <compound>
CCCCCCCCCCCCCCCCOc1nn(-c2ccc(OC(F)(F)F)cc2)c(=O)o1

>  <unit_spec>
°C

>  <melting point>
56

$$$$

List melting point for every entry below, keeping the order given.
1. CCCCCCCCCCCCOc1nn(-c2ccc([N+](=O)[O-])cc2C)c(=O)o1
2. CCCCCCCCCCCCCOc1nn(-c2ccc(OC(F)(F)F)cc2)c(=O)o1
3. CCCCCCCCCCCCOc1nn(-c2ccc([N+](=O)[O-])c(OCc3ccc(F)cc3)c2)c(=O)o1

1. 63
2. 50
3. 71

List melting point for every entry below, keeping the order given.
1. CCCCCCCCCCCCOc1nn(-c2cccc(C(F)(F)F)c2)c(=O)o1
2. CCCCCCCCCCCCCCCCOc1nn(-c2cccc(F)c2)c(=O)o1
3. CCCCCCCCCCCCOc1nn(-c2cc(Cl)cc(Cl)c2)c(=O)o1
4. CCCCCCCCOc1nn(-c2ccccc2)c(=O)o1

1: 43; 2: 58; 3: 48; 4: 38
